# ASSAY_SYSTEM: Dopamine beta hydroxylase (Homo sapiens, UniProt P09172)
# Construct: 125 μl of plasma; tissue Instituto Português do Sangue Transplantação; host or cells: human plasma from healthy donors
# Sequence (P09172 40-617 limits assumed): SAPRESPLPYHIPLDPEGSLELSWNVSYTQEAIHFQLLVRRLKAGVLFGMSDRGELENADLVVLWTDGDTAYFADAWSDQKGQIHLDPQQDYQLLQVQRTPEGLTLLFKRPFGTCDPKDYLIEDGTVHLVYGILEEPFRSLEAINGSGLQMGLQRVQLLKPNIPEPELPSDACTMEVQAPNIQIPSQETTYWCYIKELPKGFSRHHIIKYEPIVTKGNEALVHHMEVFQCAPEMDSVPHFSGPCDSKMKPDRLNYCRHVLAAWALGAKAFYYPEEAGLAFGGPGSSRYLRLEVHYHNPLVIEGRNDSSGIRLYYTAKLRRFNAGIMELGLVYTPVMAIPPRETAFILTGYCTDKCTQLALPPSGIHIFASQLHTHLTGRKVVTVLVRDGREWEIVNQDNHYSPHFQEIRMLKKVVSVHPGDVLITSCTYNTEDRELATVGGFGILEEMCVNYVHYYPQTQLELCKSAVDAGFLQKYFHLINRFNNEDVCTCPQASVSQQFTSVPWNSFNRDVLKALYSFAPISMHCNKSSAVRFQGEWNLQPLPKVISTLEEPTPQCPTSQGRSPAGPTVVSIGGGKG
# TEST_DETAILS: Dopamine beta hydroxylase activity in human plasma
# Assay type: biochemical
# ASSAY_CONDITIONS: inhibitor 0.1 μM
Reported Plasma (0.1 μM), activity in % of control is given for each of the following compounds.

> print(dat)
                                   compound                              assay.system         data.value
1  CN1CCC(NC(=O)Cc2c3n(c(=S)n2C)C[C@@H](c2c(F)ccc(F)c2F)C3)C1=O (stereo partly shown)  Dopamine beta hydroxylase (Homo sapiens, UniProt P09172)  71.1 % of control
2  Cn1c(CC(=O)NC2COC2)c2n(c1=S)C[C@@]1(c3c(F)ccc(Cl)c3F)C[C@@H]21  Dopamine beta hydroxylase (Homo sapiens, UniProt P09172)   7.3 % of control
3  Cn1c(CC(=O)NC2COC2)c2n(c1=S)C[C@@H](c1c(F)c(F)cc(F)c1F)C2  Dopamine beta hydroxylase (Homo sapiens, UniProt P09172)  47.6 % of control
4  NC(=O)Cc1[nH]c(=S)n2c1[C@@H]1C[C@]1(c1cc(Cl)ccc1F)C2  Dopamine beta hydroxylase (Homo sapiens, UniProt P09172)  38.5 % of control

API: the following record is the query input.
For the compound `O=C(O)Cc1[nH]c(=S)n2c1C[C@H](c1c(F)ccc(Br)c1F)C2` , give its reported Plasma (0.1 μM), activity in % of control.
68.0 % of control

----------
# ASSAY_SYSTEM: Dopamine beta hydroxylase (Homo sapiens)
# Construct: 125 μl of plasma; tissue Instituto Português do Sangue Transplantação; host or cells: human plasma from healthy donors
# Sequence (P09172 40-617 limits assumed): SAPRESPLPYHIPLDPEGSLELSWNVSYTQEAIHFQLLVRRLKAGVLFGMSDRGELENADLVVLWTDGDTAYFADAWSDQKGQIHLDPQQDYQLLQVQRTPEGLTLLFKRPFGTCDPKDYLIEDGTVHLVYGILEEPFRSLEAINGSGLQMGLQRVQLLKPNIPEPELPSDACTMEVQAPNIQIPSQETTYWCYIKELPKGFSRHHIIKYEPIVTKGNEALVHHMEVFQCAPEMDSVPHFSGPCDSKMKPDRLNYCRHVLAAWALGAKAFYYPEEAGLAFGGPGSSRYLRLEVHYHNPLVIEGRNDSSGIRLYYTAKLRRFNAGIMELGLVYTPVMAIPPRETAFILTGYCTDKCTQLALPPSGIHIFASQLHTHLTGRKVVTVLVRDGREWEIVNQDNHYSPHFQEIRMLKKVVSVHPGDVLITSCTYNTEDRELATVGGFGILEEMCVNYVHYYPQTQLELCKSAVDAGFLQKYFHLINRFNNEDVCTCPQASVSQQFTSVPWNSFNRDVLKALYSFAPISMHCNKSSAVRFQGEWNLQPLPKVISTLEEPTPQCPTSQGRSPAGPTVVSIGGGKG
# TEST_DETAILS: Dopamine beta hydroxylase activity in human plasma
# Format: biochemical
# ASSAY_CONDITIONS: inhibitor 0.1 μM
Reported Plasma (0.1 μM), activity in % of control is given for each of the following molecules.

Consider the reported Plasma (0.1 μM), activity in % of control for these molecules:
> print(dat)
                            smiles.notation         data.value
1  Cn1c(CC(=O)Nc2ccccn2)c2n(c1=S)C[C@H](c1c(F)ccc(Cl)c1F)C2  21.3 % of control
2  CN1CCN(C(=O)Cc2[nH]c(=S)n3c2C[C@H](c2c(F)c(F)cc(F)c2F)C3)CC1  63.1 % of control
3  CN(C(=O)Cc1c2n(c(=S)n1C)C[C@H](c1c(F)ccc(Cl)c1F)C2)C1CCOCC1  12.8 % of control

API: the following record is the query input.
For the molecule `O=C(Cc1[nH]c(=S)n2c1C[C@H](c1c(F)c(F)cc(F)c1F)C2)NC[C@@H]1CCCO1` , give its reported Plasma (0.1 μM), activity in % of control.
47.8 % of control
